Provenance of the data: patent US20240270821A1

Target Or Test System: human glucagon receptor (human) (UniProt P47871)
Sequence (P47871 26-477): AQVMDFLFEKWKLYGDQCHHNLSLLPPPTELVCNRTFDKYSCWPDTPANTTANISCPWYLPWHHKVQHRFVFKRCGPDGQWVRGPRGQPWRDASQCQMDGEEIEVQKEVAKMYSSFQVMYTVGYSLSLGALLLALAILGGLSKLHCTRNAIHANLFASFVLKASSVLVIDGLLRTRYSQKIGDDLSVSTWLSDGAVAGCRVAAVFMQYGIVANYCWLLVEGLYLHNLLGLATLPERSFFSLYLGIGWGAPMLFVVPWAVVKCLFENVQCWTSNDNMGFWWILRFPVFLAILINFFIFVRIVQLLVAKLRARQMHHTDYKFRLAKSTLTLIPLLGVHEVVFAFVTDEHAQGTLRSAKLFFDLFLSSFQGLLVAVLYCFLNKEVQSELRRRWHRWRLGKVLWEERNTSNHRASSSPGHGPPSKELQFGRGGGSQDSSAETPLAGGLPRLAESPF
Measurement Notes: cell-based or functional assay
Items are presented alongside their recorded Relative cAMP EC50.
Reply with just the number (in nM).

Known Relative cAMP EC50 results, listed for orientation:
YXQGTFTSDXSXXLDXKAQXAFIEXLIEXGPSSGEPPPSGS (Aib, 4Pal, Orn, Me4Pal, lipidated Lys, C-terminal amide; synthetic construct; SITE 2: note = 2-Aminoisobutyric Acid; SITE 10: note = 3-(4-Pyridyl)-L-alanine; SITE 12: note = L-ornithine; SITE 13: note = alpha-methyl-leucine; SITE 16: note = L-ornithine; SITE 17: note = Lysine is chemically modified through conjugation of the epsilon-amino group of the Lys) [Example 991]; 3.03
YXQGTFTSDFSQXLDKKAQXAFIEYLLEXGPSSGAPPPSGX (synthetic construct; SITE 2: note = 2-Aminoisobutyric Acid; SITE 13: note = alpha-methyl-leucine; SITE 17: note = Lysine is chemically modified through conjugation of the epsilon-amino group of the Lysine side chain with (2-[2-(2-Amino-ethoxy)-ethoxy]-acetyl)-(gamma-Glu)-CO-(CH2) 16-CO2H; SITE 20: n) [Example 782]; 4.96

Now for the binder whose Relative cAMP EC50 we want.
IN: Consider the binder YXQGTXTSDYSILLDKKAQXAFIEYLEEGGPSSGAPPPSGE (synthetic construct; SITE 2: note = 2-Aminoisobutyric Acid; SITE 6: note = alpha-methyl-2-fluoro-L-phenylalanine; SITE 17: note = Lysine is chemically modified through conjugation of the epsilon-amino group of the Lysine side chain with (gamma-Glu)2-CO-(CH2)16-CO2H; SITE 20: note = 2-Aminoisobutyric) [Example 435] and give its measured Relative cAMP EC50.
OUT: 3.01
